From: ChEMBL document CHEMBL4706476

test_description: Selectivity ratio of IC50 for inhibition of FITC-geldanamycin binding to N-terminal GRP94 (unknown origin) to IC50 for inhibition of FITC-geldanamycin binding to N-terminal HSP90alpha (unknown origin)
Flag rule - Ratio IC50 less than 10 flags Yes; the remaining entries get No.

Below are worked cases with known answers.
{"query_smiles": "COCCOc1ncc2c(n1)CCN(C(=O)c1cc(C(C)C)c(O)cc1O)C2", "label": "No"}
{"query_smiles": "CCCCOc1ncc2c(n1)CCN(C(=O)c1cc(C(C)C)c(O)cc1O)C2", "label": "Yes"}
{"query_smiles": "COCCOc1nc2c(c(N(C)C)n1)CN(C(=O)c1cc(C(C)C)c(O)cc1O)CC2", "label": "No"}
{"query_smiles": "CCCOc1nc(OCCOC)nc2c1CN(C(=O)c1cc(C(C)C)c(O)cc1O)CC2", "label": "No"}
{"query_smiles": "CCCNc1nc(OCCOC)nc2c1CN(C(=O)c1cc(C(C)C)c(O)cc1O)CC2", "label": "No"}

Given the entry COCCOc1nc2c(c(OC)n1)CN(C(=O)c1cc(C(C)C)c(O)cc1O)CC2 , would its reported Ratio IC50 be below 10?
Yes

Given the entry COc1ncc2c(n1)CCN(C(=O)c1cc(C(C)C)c(O)cc1O)C2 , would its reported Ratio IC50 be below 10?
Yes

Given the entry COCCOc1nc2c(c(NC3CC3)n1)CN(C(=O)c1cc(C(C)C)c(O)cc1O)CC2 , would its reported Ratio IC50 be below 10?
No

Given the entry CC(C)Oc1ncc2c(n1)CCN(C(=O)c1cc(C(C)C)c(O)cc1O)C2 , would its reported Ratio IC50 be below 10?
Yes
